meta.source: ChEMBL document CHEMBL3588845

Tested on: Leishmania major
Test: Antiparasite activity against luciferase-expressing Leishmania major amastigotes isolated from infected in mouse RAW264.7 cells assessed as growth inhibition incubated for 96 hrs by luciferase reporter gene assay
Type: functional, organism-based
Settings: RAW264.7, 96 h
MEASURED PROPERTY: EC50 (µM)
Write the number in µM without appending the unit.

The following molecules have reported results that may help.
{"RECORD SMILES": "CN1CCN(S(=O)(=O)c2ccc(-c3ccc4nncc(Nc5ccc(OCc6cccc(F)c6)c(Cl)c5)c4c3)cc2)CC1", "SYSTEM TESTED": "Leishmania major", "EC50 [µM]": 1.9}
{"RECORD SMILES": "Fc1cccc(COc2ccc(Nc3ccnc4ccc(-c5cccc(N6CCOCC6)c5)cc34)cc2Cl)c1", "SYSTEM TESTED": "Leishmania major", "EC50 [µM]": 4}
{"RECORD SMILES": "CN1CCCN(S(=O)(=O)c2ccc(-c3ccc4c(Nc5ccc(OCc6cccc(F)c6)c(Cl)c5)nncc4c3)cc2)CC1", "SYSTEM TESTED": "Leishmania major", "EC50 [µM]": 1.1}
{"RECORD SMILES": "CN1CCCN(S(=O)(=O)c2ccc(-c3ccc4ncc(C#N)c(Nc5ccc(OCc6cccc(F)c6)c(Cl)c5)c4c3)cc2)CC1", "SYSTEM TESTED": "Leishmania major", "EC50 [µM]": 1.6}

// moving on: another record for EC50
Requested field: EC50. Item: CN1CCCN(S(=O)(=O)c2ccc(-c3ccc4c(Nc5ccc(OCc6cccc(F)c6)c(Cl)c5)nccc4c3)cc2)CC1
4.4
